System: human neutrophils
Assay: Human neutrophil oxidative activity, luminol-enhanced chemiluminescence
Assay type: cell-based
Details: human neutrophil experiment w/o Rolipram
Description: Chemiluminescence Methods: Lumninol enhanced chemiluminescence, a measure of neutrophil oxidative activity, is dependent upon both superoxide production and mobilization of the granule enzyme myeloperoxidase. […] Data are presented as peak chemiluminescence as percent of activity in the absence of an adenosine agonist. The EC50 was determined using PRISM software. […]
For each record, check the reported PMN oxid (-log EC50): if it is below 7 write condition met, else write condition not met.

// known answers, use as guide
CCNC(=O)C1OC(n2cnc3c(N)nc(C#CC4(O)CCCCC4)nc32)C(O)C1O (stereo not drawn) ... condition not met
CCNC(=O)[C@H]1O[C@@H](n2cnc3c(N)nc(C#CCC4CCC(C)(C(=O)OC)CC4)nc32)C(O)C1O (single isomer, unassigned) [JR-3067A] ... condition not met
CCNC(=O)C1OC(n2cnc3c(N)nc(C#CC4(N)CCCCC4)nc32)C(O)C1O (stereo not drawn) ... condition not met
CCNC(=O)C1OC(n2cnc3c(N)nc(C#CCC4CCNCC4)nc32)C(O)C1O (stereo not drawn) ... condition met

Lookup: Just wondering, is PMN oxid (-log EC50) of CCNC(=O)[C@H]1O[C@@H](n2cnc3c(N)nc(C#CC4(O)CCCCNC4=O)nc32)C(O)C1O (single isomer, unassigned) [JR-3243A] below 7?
Found: condition met

Lookup: Does this molecule meet the criterion PMN oxid (-log EC50) < 7? CCNC(=O)[C@H]1O[C@@H](n2cnc3c(N)nc(C#CC4(O)CCCCC4C)nc32)C(O)C1O (single isomer, unassigned) [JR-3181A]
Found: condition not met

Lookup: Field: below-cutoff. Rule: recorded PMN oxid (-log EC50) strictly less than 7. Subject: CCNC(=O)C1OC(n2cnc3c(N)nc(C#CC(O)C4CCCCC4)nc32)C(O)C1O (single isomer, unassigned) [JR-3159A]
Found: condition not met

Lookup: # strict comparison: is reported PMN oxid (-log EC50) < 7? input = CCNC(=O)[C@H]1O[C@@H](n2cnc3c(N)nc(C#CC4(O)CCCCC4C)nc32)C(O)C1O (single isomer, unassigned) [JR-3177A]
Found: condition not met

Lookup: Given the entry CCNC(=O)C1OC(n2cnc3c(N)nc(C#CC(O)C4CCCCC4)nc32)C(O)C1O (single isomer, unassigned) [JR-3159B] , would its reported PMN oxid (-log EC50) be below 7?
Found: condition not met

* * *

Biological target: human A1 AR (Homo sapiens)
Assay: Radioligand competition binding (125I-ABA) to human A1 AR in CHO K1 cell membranes
Settings: selectivity ratio A1 over A2A
Endpoint: A1/A2A
One number for each entry.

CCNC(=O)[C@H]1O[C@@H](n2cnc3c(N)nc(C#CCC4CCC(CO)CC4)nc32)C(O)C1O (stereo in doubt) ... 12.6
CCNC(=O)[C@H]1O[C@@H](n2cnc3c(N)nc(C#CCN4CCN(c5ncccn5)CC4)nc32)C(O)C1O (stereo in doubt) ... 4.6
CCNC(=O)[C@H]1O[C@@H](n2cnc3c(N)nc(C#CC4(O)CCC(c5ccccc5)CC4)nc32)C(O)C1O (stereo in doubt) ... 12.2

# ---- query compound ----
Lookup: Report A1/A2A for COC(=O)C1CCC(CC#Cc2nc(N)c3ncn(C4OC(CO)C(O)C4O)c3n2)CC1 (stereo not shown) please.
Found: 42.2

* * *

Molecular target: human A1 AR (Homo sapiens)
Assay: Radioligand competition binding (125I-ABA) to human A1 AR in CHO K1 cell membranes
Settings: read-out: A1 ± SEM; Ki from competition binding, 125I-ABA, CHO K1 cell membranes
Would you kindly list Ki for each of these compounds?
Give bare numbers, in µM.

Examples with their reported Ki follow.
CCNC(=O)C1OC(n2cnc3c(N)nc(C#CC(O)C4CCCCC4)nc32)C(O)C1O (single isomer, unassigned) [JR-3159A] ... 0.0009
CCNC(=O)C1OC(n2cnc3c(N)nc(C#CC4(N)CCCCC4)nc32)C(O)C1O (stereo not shown) [JR-3205] ... 0.0142
CC(=O)OCC1CCC(CC#Cc2nc(N)c3ncn(C4OC(CO)C(O)C4O)c3n2)CC1 (stereo not shown) [JR-2147] ... 0.0175

Could you now consider this next compound?
Lookup: Please report the recorded Ki for CCNC(=O)C1OC(n2cnc3c(N)nc(C#CC4(O)CCCCC4)nc32)C(O)C1O (stereo not shown) [JR-3089] .
Found: 0.0071

* * *

Molecular target: A3 AR (Homo sapiens, UniProt P0DMS8)
Sequence (P0DMS8 whole entry): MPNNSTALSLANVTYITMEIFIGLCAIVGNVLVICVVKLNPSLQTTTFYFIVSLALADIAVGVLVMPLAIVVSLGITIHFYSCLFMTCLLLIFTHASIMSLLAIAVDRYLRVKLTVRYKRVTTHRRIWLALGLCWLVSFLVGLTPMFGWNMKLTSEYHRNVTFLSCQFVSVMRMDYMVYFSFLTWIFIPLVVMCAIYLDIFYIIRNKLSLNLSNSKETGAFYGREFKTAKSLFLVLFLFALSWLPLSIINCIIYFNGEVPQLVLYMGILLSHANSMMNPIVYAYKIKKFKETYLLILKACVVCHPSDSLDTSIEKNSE
Assay: Radioligand competition binding (125I-ABA) to human A3 AR in HEK 293 cell membranes
Conditions: A3 ± SEM, Ki from competition binding, 125I-ABA, HEK 293 cell membranes
Consider the following compounds; for each one, report its pKi.
Numbers only, as −log10 of the molar value.

Past entries and their recorded results:
CCNC(=O)[C@H]1O[C@@H](n2cnc3c(N)nc(C#CC4(O)CCC(c5ccccc5)CC4)nc32)C(O)C1O (stereo in doubt) [JR-3161] ... 6.95
CCNC(=O)[C@H]1O[C@@H](n2cnc3c(N)nc(C#CC4(O)CCCCC4C(C)(C)C)nc32)C(O)C1O (stereo in doubt) [JR-3227] ... 7.30
CCNC(=O)[C@H]1O[C@@H](n2cnc3c(N)nc(C#CCC4CCN(C(=O)OC(C)C)CC4)nc32)C(O)C1O (stereo in doubt) [JR-4009] ... 7.07
CCNC(=O)[C@H]1O[C@@H](n2cnc3c(N)nc(C#CCC4CCC(CC)CC4)nc32)C(O)C1O (stereo in doubt) [JR-3087] ... 7.75
CCNC(=O)[C@H]1O[C@@H](n2cnc3c(N)nc(C#CC4(O)CCCCC4C)nc32)C(O)C1O (single isomer, unassigned) [JR-3181A] ... 7.16

Take each entry in turn and give its pKi.
1. CCNC(=O)[C@H]1O[C@@H](n2cnc3c(N)nc(C#CCC4CCC(C)(C(=O)OC)CC4)nc32)C(O)C1O (single isomer, unassigned) [JR-3067A]
2. CCNC(=O)[C@H]1O[C@@H](n2cnc3c(N)nc(C#CCC4CCC(CO)CC4)nc32)C(O)C1O (stereo in doubt) [ATL-2037]
3. CCNC(=O)[C@H]1O[C@@H](n2cnc3c(N)nc(C#CC[C@H]4CC[C@H](COC(=O)OC)CC4)nc32)C(O)C1O (some centres unmarked) [ATL214]

Found:
[7.41, 7.12, 7.00]

* * *

Molecular target: human A1 AR (Homo sapiens)
Assay: Radioligand competition binding (125I-ABA) to human A1 AR in CHO K1 cell membranes
Details: A1 ± SEM, Ki from competition binding, 125I-ABA, CHO K1 cell membranes
Endpoint: log10 of Ki (log10 of the value in µM)
On a log10 scale: recorded Ki, unit µM.

CCNC(=O)[C@H]1O[C@@H](n2cnc3c(N)nc(C#CCC4CCC(C(=O)NC)CC4)nc32)C(O)C1O (stereo in doubt) ... -1.26

Go through the list and state log10 of Ki for each entry.
1. CCNC(=O)C1CCC(CC#Cc2nc(N)c3ncn([C@@H]4O[C@H](C(=O)NCC)C(O)C4O)c3n2)CC1 (stereo in doubt)
2. CCNC(=O)[C@H]1O[C@@H](n2cnc3c(N)nc(C#CCN4CCCCC4C(=O)OC)nc32)C(O)C1O (some centres unmarked)
3. CCNC(=O)[C@H]1O[C@@H](n2cnc3c(N)nc(C#CC(O)(C4CCCCC4)C4CCCCC4)nc32)C(O)C1O (stereo in doubt)
4. CCNC(=O)[C@H]1O[C@@H](n2cnc3c(N)nc(C#CCC4CCN(C(=O)OC)CC4)nc32)C(O)C1O (stereo in doubt)
5. CCNC(=O)[C@H]1O[C@@H](n2cnc3c(N)nc(C#CCC4CCN(C(=O)OC(C)(C)C)CC4)nc32)C(O)C1O (stereo in doubt)
6. CCNC(=O)[C@H]1O[C@@H](n2cnc3c(N)nc(C#CC4(O)CCCCC4C(C)(C)C)nc32)C(O)C1O (stereo in doubt)

Found:
[-0.95, -1.86, -0.10, -1.46, -0.69, -0.27]

Lookup: Endpoint output: log10 of Ki of CCNC(=O)[C@H]1O[C@@H](n2cnc3c(N)nc(C#CC4(O)CCCCNC4=O)nc32)C(O)C1O (single isomer, unassigned) [JR-3243A] . Value?
Found: -1.53

* * *

Target: human A1 AR (Homo sapiens)
Sequence (P30542 1-326): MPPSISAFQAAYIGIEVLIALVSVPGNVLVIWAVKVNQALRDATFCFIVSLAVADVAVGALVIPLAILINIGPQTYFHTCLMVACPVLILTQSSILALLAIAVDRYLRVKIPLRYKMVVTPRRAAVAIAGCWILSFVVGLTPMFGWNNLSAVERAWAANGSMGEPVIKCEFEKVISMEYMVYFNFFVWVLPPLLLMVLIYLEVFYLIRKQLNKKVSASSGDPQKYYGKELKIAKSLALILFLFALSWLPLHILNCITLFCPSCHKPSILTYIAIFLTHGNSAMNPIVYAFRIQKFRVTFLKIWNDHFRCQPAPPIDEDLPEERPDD
Assay: Radioligand competition binding (125I-ABA) to human A1 AR in CHO K1 cell membranes
Conditions: selectivity ratio A1 over A2A
Endpoint: A1/A2A
Answers are plain numbers.

Below, 3 compounds whose answers are already recorded.
CCNC(=O)[C@H]1O[C@@H](n2cnc3c(N)nc(C#CCC4CCC(C(N)=O)CC4)nc32)C(O)C1O (stereo in doubt) ... 20.0
CCNC(=O)[C@H]1O[C@@H](n2cnc3c(N)nc(C#C[C@@]4(O)CCC[C@@H](C)C4)nc32)C(O)C1O (some centres unmarked) ... 3.8
CCNC(=O)[C@H]1O[C@@H](n2cnc3c(N)nc(C#CCC4CCC(C(=O)O)CC4)nc32)C(O)C1O (stereo in doubt) [ATL-146a] ... 6.4

Hey, quick one: what's A1/A2A for each of these?
1. CCNC(=O)[C@H]1O[C@@H](n2cnc3c(N)nc(C#CCN4CCN(C(=O)OC(C)(C)C)CC4)nc32)C(O)C1O (stereo in doubt)
2. CCNC(=O)[C@H]1O[C@@H](n2cnc3c(N)nc(C#CC4(O)CCCCC4C)nc32)C(O)C1O (single isomer, unassigned) [JR-3181A]
3. CCNC(=O)[C@H]1O[C@@H](n2cnc3c(N)nc(C#C[C@]4(O)CCC[C@@H](C)C4)nc32)C(O)C1O (stereo in doubt)
4. CCNC(=O)C1OC(n2cnc3c(N)nc(C#CCC4CCNCC4)nc32)C(O)C1O (centres unmarked)
5. CCNC(=O)[C@H]1O[C@@H](n2cnc3c(N)nc(C#CCC4CCC(C(=O)OC)CC4)nc32)C(O)C1O (stereo in doubt) [ATL-146e]
6. CCNC(=O)C1OC(n2cnc3c(N)nc(C#CC4(O)CCCCC4)nc32)C(O)C1O (centres unmarked)

Found:
3.9
38.1
5.2
8.3
154.0
10.8

Lab note: each compound below needs its A1/A2A filled in.
1. CCNC(=O)[C@H]1O[C@@H](n2cnc3c(N)nc(C#CCC4CCC(C(C)=O)CC4)nc32)C(O)C1O (stereo in doubt)
2. CCNC(=O)[C@H]1O[C@@H](n2cnc3c(N)nc(C#CC4(O)CCCCC4C)nc32)C(O)C1O (single isomer, unassigned) [JR-3177B]
3. CCNC(=O)[C@H]1O[C@@H](n2cnc3c(N)nc(C#CCC4CCN(C(=O)OCC(C)C)CC4)nc32)C(O)C1O (stereo in doubt)
4. CCNC(=O)[C@H]1O[C@@H](n2cnc3c(N)nc(C#CC4(O)CCCCC4C)nc32)C(O)C1O (single isomer, unassigned) [JR-3181B]

Found:
[11.9, 23.1, 0.0, 36.1]

Lookup: Any idea what A1/A2A was measured for CC(=O)OCC1CCC(CC#Cc2nc(N)c3ncn(C4OC(CO)C(O)C4O)c3n2)CC1 (centres unmarked) ?
Found: 19.0
